Entries and their growth
System: NCI-H460 lung
Assay: NCI-60 one-dose screen, 48 h (100 = growth as untreated, 0 = no growth, -100 = all killed)
Details: 10 µM unless noted
About 83,000 compounds went through this panel and 20% of them were active in at least one assay; those are over-represented in the sample as a whole. Activity calls are given as the source filed them. How the source made its calls: active means growth percent below 10; inactive means the rest.

Worked examples follow.
Please respond with reported growth (system NCI-H460 lung) for Nc1ncnc2c1N=C(c1ccc3c(c1)OCO3)CC(c1cccc(Nc3ccnc4cc(C(F)(F)F)ccc34)c1)N2 (stereo unspecified) .
90.7% (inactive)

Please respond with reported growth (system NCI-H460 lung) for O=C(/C=C/C12c3ccccc3C(c3ccccc31)C1C(=O)NC(=O)C12)c1ccc(Br)cc1 (stereo unspecified) .
34.6% (inactive)

Please respond with reported growth (system NCI-H460 lung) for O=C(c1c[nH]c2ccccc12)c1n[nH]c(=S)n1-c1cccc(Br)c1 .
75% (inactive)

Please respond with reported growth (system NCI-H460 lung) for CCCCNc1nnc2n(Cc3ccccc3)c(=O)c3c4c(sc3n12)CCCC4 .
22.7% (inactive)

More entries:
Please respond with reported growth (system NCI-H460 lung) for O=C(CI)NC(=O)NC(=O)NCc1ccccc1 .
102% (inactive)

Please respond with reported growth (system NCI-H460 lung) for CO[C@H](C(=O)[C@@H](O)[C@@H](C)O)[C@@H]1Cc2cc3cc(O[C@H]4C[C@@H](O[C@H]5C[C@@H](O)[C@H](O)C(C)O5)[C@H](O)C(C)(O)O4)cc(O)c3c(O)c2C(=O)[C@H]1O[C@H]1C[C@@H](O[C@H]2C[C@@H](O[C@H]3C[C@@H](OC)[C@H](O)C(C)O3)[C@@H](O)C(C)O2)[C@H](O)C(C)O1 (stereo partly specified) .
12.9% (inactive)

Please respond with reported growth (system NCI-H460 lung) for N[C@H]1CCC[C@@H]1NCCCCN1C(=O)c2cccc3cc([N+](=O)[O-])cc(c23)C1=O .
13.7% (inactive)

Please respond with reported growth (system NCI-H460 lung) for CCOc1c(OC)cc2c(c1O)C(=O)N[C@@H]1[C@@H](O)[C@@H](O)[C@H](O)C[C@@H]21 .
112% (inactive)

Sourced from PubChem BioAssay (NCI)
